# Tested on: RXF 1781L
# EXPERIMENT DESCRIPTION: 2D monolayer CellTiter-Blue viability, renal cancer RXF 1781L
# Assay type: cell-based
# PARTICULARS: RXF 1781L; RXF 1781, 72 h; read-out: Abs. IC50
MEASURED QUANTITY: IC50 (nM)

COC(=O)Nc1nc2ccc(C(=O)c3ccccc3)cc2[nH]1 395

====

# Test system: OVXF 1023L
# EXPERIMENT DESCRIPTION: 2D monolayer CellTiter-Blue viability, ovarian cancer OVXF 1023L
# Format: cell-based
# PARTICULARS: Homo sapiens, OVXF1023; OVXF 1023, 72 h; read-out: Rel. IC50
MEASURED QUANTITY: IC50

MOLECULE	MEAS VALUE
COC(=O)Nc1nc2ccc(C(=O)c3ccccc3)cc2[nH]1 [Mebendazole]	> 3.2 µM

====

# EXPERIMENT DESCRIPTION: in vitro
# PARTICULARS: human, cryopreserved hepatocytes (suspension), with fluvoxamine 3 µM

COMPOUND	UNIT STRING	hepatocyte CLint at 1 µM
COC(=O)Nc1nc2ccc(C(=O)c3ccccc3)cc2[nH]1 [Mebendazole]	µL/min/1e6 cells	8.14

====

# TARGET UNDER TEST: CYP2B6 (Homo sapiens)
# Sequence (P20813 whole entry): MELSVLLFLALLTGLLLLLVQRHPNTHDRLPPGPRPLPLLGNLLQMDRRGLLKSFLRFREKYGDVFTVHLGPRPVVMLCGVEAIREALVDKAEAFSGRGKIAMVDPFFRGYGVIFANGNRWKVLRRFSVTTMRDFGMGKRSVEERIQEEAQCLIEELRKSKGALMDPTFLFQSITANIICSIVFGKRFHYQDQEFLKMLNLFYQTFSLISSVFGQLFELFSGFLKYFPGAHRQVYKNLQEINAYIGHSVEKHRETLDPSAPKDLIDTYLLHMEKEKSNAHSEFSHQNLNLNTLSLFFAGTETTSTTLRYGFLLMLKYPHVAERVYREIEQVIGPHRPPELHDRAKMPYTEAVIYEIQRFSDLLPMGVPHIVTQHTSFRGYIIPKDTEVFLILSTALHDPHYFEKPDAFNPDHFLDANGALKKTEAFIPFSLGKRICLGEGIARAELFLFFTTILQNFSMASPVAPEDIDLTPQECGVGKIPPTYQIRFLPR
# EXPERIMENT DESCRIPTION: Cytochrome P450 reaction phenotyping, recombinant CYP2B6 (Bactosomes)
# PARTICULARS: human, recombinant CYP2B6 (Bactosomes), pH 7.4
MEASURED QUANTITY: half-life at 5 μM

COC(=O)Nc1nc2ccc(C(=O)c3ccccc3)cc2[nH]1 > 2.25 h

====

# EXPERIMENT DESCRIPTION: in vitro
# PARTICULARS: human, cryopreserved hepatocytes (suspension)

COMPOUND	half-life at 1 μM (h)
COC(=O)Nc1nc2ccc(C(=O)c3ccccc3)cc2[nH]1 [Mebendazole]	1.52

====

# EXPERIMENT DESCRIPTION: Ricobendazole microsomal metabolic stability without and with cimetidine or furafylline (Example 8)
# Type: in vitro ADME
# PARTICULARS: human, liver microsomes, pH 7.4, with furafylline 10 μM; read-out: CLint
MEASURED QUANTITY: microsomal CLint at 0.1 μM (µL/min/mg)

COMPOUND	MEASURED QUANTITY	UNIT STRING	MEAS VALUE
CCC[S+]([O-])c1ccc2[nH]c(NC(=O)OC)nc2c1 (stereo not shown) [Ricobendazole, albendazole sulphoxide]	microsomal CLint at 0.1 μM	µL/min/mg	4.31

====

# EXPERIMENT DESCRIPTION: in vitro
# PARTICULARS: human, cryopreserved hepatocytes (suspension), with mexiletine 30 μM

COMPOUND	half-life at 1 μM
COC(=O)Nc1nc2ccc(C(=O)c3ccccc3)cc2[nH]1 [Mebendazole]	11.9 h

====

# EXPERIMENT DESCRIPTION: Ricobendazole microsomal metabolic stability without and with cimetidine or furafylline (Example 8)
# Type: in vitro ADME
# PARTICULARS: human, liver microsomes; optimisation, 1 μM and 0.5 mg/mL protein; read-out: intrinsic clearance
MEASURED QUANTITY: microsomal CLint at 1 μM (µL/min/mg)

COMPOUND	MEASURED QUANTITY	UNIT STRING	MEAS VALUE
CCC[S+]([O-])c1ccc2[nH]c(NC(=O)OC)nc2c1 (stereo not shown) [Ricobendazole, albendazole sulphoxide]	microsomal CLint at 1 μM	µL/min/mg	4.39

====

# EXPERIMENT DESCRIPTION: Stability in human liver microsomes without and with cimetidine or furafylline (Example 4)
# Type: in vitro ADME
# PARTICULARS: human, liver microsomes, pH 7.4, with furafylline 10 μM, substrate 1 μM, plus 10 μM furafylline
MEASURED QUANTITY: microsomal CLint at 1 μM (µL/min/mg)

COMPOUND	MEAS VALUE
COC(=O)Nc1nc2ccc(C(=O)c3ccccc3)cc2[nH]1 [Mebendazole]	0.232

====

# EXPERIMENT DESCRIPTION: in vitro
# PARTICULARS: human, cryopreserved hepatocytes, with mexiletine 30 μM
MEASURED QUANTITY: half-life at 1 μM

COC(=O)Nc1nc2ccc(C(=O)c3ccccc3)cc2[nH]1 2.2 h

====

We begin with a simple list: items and their reported microsomal CLint at 1 μM.
# EXPERIMENT DESCRIPTION: Stability in human liver microsomes without and with cimetidine or furafylline (Example 4)
# Assay type: in vitro ADME
# PARTICULARS: human, liver microsomes, pH 7.4, with cimetidine 300 μM; substrate 1 μM, plus 300 μM cimetidine
MEASURED QUANTITY: microsomal CLint at 1 μM (µL/min/mg)

COC(=O)Nc1nc2ccc(C(=O)c3ccccc3)cc2[nH]1 15
CCOc1ccc(NC(C)=O)cc1 13.9

====

# EXPERIMENT DESCRIPTION: Stability in human liver microsomes without and with cimetidine or furafylline (Example 4)
# Format: in vitro ADME
# PARTICULARS: human, liver microsomes, pH 7.4, with cimetidine 30 μM; substrate 1 μM, plus 30 μM cimetidine
# Experimental: A minus cofactor control incubation was included for each compound tested where 0.1 M phosphate buffer pH 7.4 was added instead of NADPH (minus NADPH). […] The samples were analysed for mebendazole or phenacetin using LC-MS/MS. A minus cofactor control incubation was included for each compound tested where 0.1 M phosphate buffer pH 7.4 was added instead of cofactor (minus NADPH). […] The samples were analysed for mebendazole or phenacetin using LC-MS/MS.
MEASURED QUANTITY: microsomal CLint at 1 μM (µL/min/mg)

COMPOUND	MEASURED QUANTITY	UNIT STRING	MEAS VALUE
CCOc1ccc(NC(C)=O)cc1 [Phenacetin]	microsomal CLint at 1 μM	µL/min/mg	21.2
COC(=O)Nc1nc2ccc(C(=O)c3ccccc3)cc2[nH]1 [Mebendazole]	microsomal CLint at 1 μM	µL/min/mg	18

====

# TARGET UNDER TEST: P-gp (Homo sapiens, UniProt P08183)
# Sequence (P08183 whole entry): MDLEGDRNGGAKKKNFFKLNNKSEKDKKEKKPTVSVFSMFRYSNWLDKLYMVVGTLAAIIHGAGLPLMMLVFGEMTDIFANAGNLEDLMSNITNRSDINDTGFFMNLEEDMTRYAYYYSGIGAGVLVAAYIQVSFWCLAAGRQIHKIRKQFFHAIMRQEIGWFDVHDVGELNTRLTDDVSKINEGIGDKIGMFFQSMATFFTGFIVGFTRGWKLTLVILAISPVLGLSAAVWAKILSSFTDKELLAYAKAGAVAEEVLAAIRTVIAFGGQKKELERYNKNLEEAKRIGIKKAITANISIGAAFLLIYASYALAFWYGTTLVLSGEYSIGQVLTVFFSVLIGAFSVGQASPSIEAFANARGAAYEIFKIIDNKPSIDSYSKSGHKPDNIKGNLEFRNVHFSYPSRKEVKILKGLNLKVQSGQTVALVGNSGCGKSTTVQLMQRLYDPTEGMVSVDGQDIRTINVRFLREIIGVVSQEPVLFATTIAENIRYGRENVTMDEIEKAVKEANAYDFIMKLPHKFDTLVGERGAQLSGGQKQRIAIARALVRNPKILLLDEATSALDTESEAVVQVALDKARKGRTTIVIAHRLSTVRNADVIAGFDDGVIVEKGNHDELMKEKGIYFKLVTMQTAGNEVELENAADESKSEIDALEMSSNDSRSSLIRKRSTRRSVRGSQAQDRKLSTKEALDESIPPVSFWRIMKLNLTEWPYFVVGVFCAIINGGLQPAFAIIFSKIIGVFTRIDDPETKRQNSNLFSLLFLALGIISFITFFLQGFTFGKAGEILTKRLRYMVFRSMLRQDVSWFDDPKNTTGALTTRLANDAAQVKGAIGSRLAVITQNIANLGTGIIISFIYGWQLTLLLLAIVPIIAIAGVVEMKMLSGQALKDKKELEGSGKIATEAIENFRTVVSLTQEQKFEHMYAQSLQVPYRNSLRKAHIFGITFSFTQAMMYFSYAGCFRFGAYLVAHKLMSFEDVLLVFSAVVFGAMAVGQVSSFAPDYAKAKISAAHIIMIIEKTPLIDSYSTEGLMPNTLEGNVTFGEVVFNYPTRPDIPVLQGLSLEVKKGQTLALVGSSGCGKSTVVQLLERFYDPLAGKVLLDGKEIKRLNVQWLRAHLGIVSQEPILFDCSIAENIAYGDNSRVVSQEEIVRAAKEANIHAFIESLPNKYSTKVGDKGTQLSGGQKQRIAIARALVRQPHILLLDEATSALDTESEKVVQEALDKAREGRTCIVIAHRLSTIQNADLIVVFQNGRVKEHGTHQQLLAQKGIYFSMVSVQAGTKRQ
# EXPERIMENT DESCRIPTION: in vitro
# PARTICULARS: human, Caco-2
MEASURED QUANTITY: efflux ratio at 120 min, 10 μM

COC(=O)Nc1nc2ccc(C(=O)c3ccccc3)cc2[nH]1 1.17

====

# TARGET UNDER TEST: CYP2C19 (Homo sapiens)
# Sequence (P33261 whole entry): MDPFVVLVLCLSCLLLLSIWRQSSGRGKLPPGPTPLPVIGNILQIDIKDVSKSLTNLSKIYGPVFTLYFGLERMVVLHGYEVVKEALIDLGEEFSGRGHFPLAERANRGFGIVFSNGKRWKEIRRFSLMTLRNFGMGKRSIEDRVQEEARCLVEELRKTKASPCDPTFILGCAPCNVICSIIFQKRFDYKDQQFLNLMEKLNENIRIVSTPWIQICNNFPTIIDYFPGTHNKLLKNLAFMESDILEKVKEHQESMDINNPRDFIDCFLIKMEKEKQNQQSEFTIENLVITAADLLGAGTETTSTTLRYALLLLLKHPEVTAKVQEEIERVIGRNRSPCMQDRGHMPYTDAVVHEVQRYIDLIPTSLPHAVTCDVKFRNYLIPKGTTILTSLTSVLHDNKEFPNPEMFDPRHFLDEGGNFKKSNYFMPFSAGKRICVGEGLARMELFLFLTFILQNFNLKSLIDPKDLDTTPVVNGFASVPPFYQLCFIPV
# EXPERIMENT DESCRIPTION: Cytochrome P450 reaction phenotyping, recombinant CYP2C19 (Bactosomes)
# PARTICULARS: human, recombinant CYP2C19 (Bactosomes), pH 7.4
MEASURED QUANTITY: half-life at 5 μM (h)

MOLECULE	UNIT STRING	MEAS VALUE
COC(=O)Nc1nc2ccc(C(=O)c3ccccc3)cc2[nH]1 [Mebendazole]	h	1.55

====

# TARGET UNDER TEST: CYP3A4 (Homo sapiens)
# Sequence (P08684 whole entry): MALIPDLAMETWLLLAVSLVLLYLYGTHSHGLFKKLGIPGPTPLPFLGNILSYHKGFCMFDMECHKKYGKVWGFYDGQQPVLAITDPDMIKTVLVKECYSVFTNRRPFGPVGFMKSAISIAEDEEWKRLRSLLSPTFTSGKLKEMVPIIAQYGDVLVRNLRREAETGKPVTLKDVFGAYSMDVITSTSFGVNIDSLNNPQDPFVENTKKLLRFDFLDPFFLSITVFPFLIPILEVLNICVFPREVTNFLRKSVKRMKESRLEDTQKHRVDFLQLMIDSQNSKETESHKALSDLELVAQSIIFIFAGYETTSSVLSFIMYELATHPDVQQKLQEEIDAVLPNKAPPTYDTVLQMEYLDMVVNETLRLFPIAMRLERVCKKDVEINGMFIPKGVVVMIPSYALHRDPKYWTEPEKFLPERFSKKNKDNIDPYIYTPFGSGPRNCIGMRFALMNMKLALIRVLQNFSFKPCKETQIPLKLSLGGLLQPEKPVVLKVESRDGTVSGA
# EXPERIMENT DESCRIPTION: Cytochrome P450 reaction phenotyping, recombinant CYP3A4 (Bactosomes)
# PARTICULARS: human, recombinant enzyme, pH 7.4

MOLECULE	UNIT STRING	half-life at 1 μM
CCC[S+]([O-])c1ccc2[nH]c(NC(=O)OC)nc2c1 (stereo not shown) [Ricobendazole, albendazole sulphoxide]	h	8.15

====

# EXPERIMENT DESCRIPTION: in vitro
# PARTICULARS: human, cryopreserved hepatocytes, with mexiletine 100 μM
MEASURED QUANTITY: half-life at 1 μM

MOLECULE	MEASURED QUANTITY	MEAS VALUE
COC(=O)Nc1nc2ccc(C(=O)c3ccccc3)cc2[nH]1 [Mebendazole]	half-life at 1 μM	2 h

====

# EXPERIMENT DESCRIPTION: in vitro
# PARTICULARS: human, cryopreserved hepatocytes (suspension)
MEASURED QUANTITY: hepatocyte CLint at 1 µM (µL/min/1e6 cells)

COC(=O)Nc1nc2ccc(C(=O)c3ccccc3)cc2[nH]1 15.2

====

# TARGET UNDER TEST: BCRP (Homo sapiens, UniProt Q9UNQ0)
# Sequence (Q9UNQ0 1-655): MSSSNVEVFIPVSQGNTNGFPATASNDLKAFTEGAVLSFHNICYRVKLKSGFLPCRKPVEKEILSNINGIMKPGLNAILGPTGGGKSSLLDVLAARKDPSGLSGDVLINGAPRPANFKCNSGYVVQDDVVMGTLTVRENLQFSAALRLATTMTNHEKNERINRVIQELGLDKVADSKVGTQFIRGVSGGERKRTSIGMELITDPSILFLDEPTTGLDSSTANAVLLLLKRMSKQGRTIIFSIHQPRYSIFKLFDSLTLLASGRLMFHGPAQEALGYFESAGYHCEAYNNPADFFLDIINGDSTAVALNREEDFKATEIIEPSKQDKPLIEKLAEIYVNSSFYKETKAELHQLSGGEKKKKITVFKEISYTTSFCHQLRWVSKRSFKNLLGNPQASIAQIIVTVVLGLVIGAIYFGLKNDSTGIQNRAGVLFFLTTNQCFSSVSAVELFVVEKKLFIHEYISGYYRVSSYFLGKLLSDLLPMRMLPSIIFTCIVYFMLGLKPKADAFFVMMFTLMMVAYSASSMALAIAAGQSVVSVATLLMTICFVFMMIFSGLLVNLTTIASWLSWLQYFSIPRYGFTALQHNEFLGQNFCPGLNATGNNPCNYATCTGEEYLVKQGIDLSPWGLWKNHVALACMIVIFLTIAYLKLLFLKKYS
# EXPERIMENT DESCRIPTION: in vitro
# PARTICULARS: Caco-2, Papp Mean
MEASURED QUANTITY: Papp A→B at 120 min, 10 μM

COC(=O)Nc1nc2ccc(C(=O)c3ccccc3)cc2[nH]1 235 nm/s

Source of measurements: patent US20220125765A1
